# measured_on: SMYD3 (Homo sapiens (Human), UniProt Q9H7B4)
# Sequence (Q9H7B4 whole entry): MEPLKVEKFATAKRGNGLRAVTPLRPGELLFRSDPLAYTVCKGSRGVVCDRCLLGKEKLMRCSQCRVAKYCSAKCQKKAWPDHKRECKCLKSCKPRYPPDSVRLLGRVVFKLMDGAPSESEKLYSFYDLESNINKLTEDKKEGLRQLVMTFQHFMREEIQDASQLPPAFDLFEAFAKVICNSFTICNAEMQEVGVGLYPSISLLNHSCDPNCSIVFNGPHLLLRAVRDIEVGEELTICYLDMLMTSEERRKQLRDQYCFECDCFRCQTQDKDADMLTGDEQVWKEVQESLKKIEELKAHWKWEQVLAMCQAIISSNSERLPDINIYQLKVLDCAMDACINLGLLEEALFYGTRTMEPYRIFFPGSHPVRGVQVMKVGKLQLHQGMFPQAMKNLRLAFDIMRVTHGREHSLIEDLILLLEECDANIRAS
# assay_overview: SMYD3 biochemical assay (SMYD3 enzyme assay on MEKK2 protein substrate, 3H-SAM scintillation proximity assay)
# condition_label: Table 3A; average of n = 1 to n = 50; read-out: SMYD3 Biochem IC50
# Text: S-adenosylmethionine (SAM), S-adenosylhomocysteine (SAH), Tris, Tween20, dimethylsulfoxide (DMSO), bovine skin gelatin (BSG), and Tris(2-carboxyethyl)phosphine hydrochloride solution (TCEP) were purchased from Sigma-Aldrich at the highest level of purity possible. ^3H-SAM was purchase from American Radiolabeled Chemicals with a specific activity of 80 Ci/mmol. 384-well opaque white OptiPlates and SPA beads (Perkin Elmer, catalog # RPNQ0013) were purchased from PerkinElmer. […]
pIC50: −log10 of the molar value.
A collection of molecules and their measured pIC50
parameter_measured: pIC50

item_smiles=O=C1Cc2cc(C(=O)N[C@H]3C[C@H]4CC[C@@H](C3)N4S(=O)(=O)CCN3CCCC3)c(Cl)cc2N1 measurement=7.34
item_smiles=O=C1Cc2cc(C(=O)N[C@H]3C[C@H]4CC[C@@H](C3)N4S(=O)(=O)C[C@@H]3CCCNC3)c(Cl)cc2N1 measurement=8.30
item_smiles=O=C(N[C@H]1C[C@H]2CC[C@@H](C1)N2S(=O)(=O)[C@H]1CC[C@H](NCc2ccccc2)CC1)c1ccc2c(c1)OC(F)(F)O2 measurement=6.65
item_smiles=NC1CCN(S(=O)(=O)N2[C@@H]3CC[C@H]2C[C@@H](NC(=O)c2cc4c(cc2F)NC(=O)C4)C3)CC1 measurement=9.31
item_smiles=CC(=O)Nc1ccc(S(=O)(=O)N2CCC(NC(=O)c3cc4c(cc3Cl)NC(=O)C4)CC2)cc1 measurement=5.23
item_smiles=O=C1Cc2cc(C(=O)N[C@H]3C[C@H]4CC[C@@H](C3)N4S(=O)(=O)CC3CCNCC3)c(Cl)cc2N1 measurement=8.44
item_smiles=O=C1Cc2cc(C(=O)N[C@H]3C[C@H]4CC[C@@H](C3)N4S(=O)(=O)CC3CCNCC3)ccc2N1 measurement=8.40

src = patent US10266526B2
